Biological target: T1, human GPC3-His protein (human, UniProt P51654 25-559, limits assumed)
T1 construct: also called human GPC3 protein; not shown: His tag
Test: SPR, antibody captured on Protein A chip, human GPC3-His injected, 1:1 Langmuir model;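 further: flow cell at 25 °C, antigen injected for 240 s at five twofold dilutions starting at 200 nM, dissociation followed up to 600 s, double-referenced sensorgrams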
VALUE_TYPE: kon (M⁻¹ s⁻¹)
Give the value in M⁻¹ s⁻¹ but do not write M⁻¹ s⁻¹ after it.

Lab note: measured kon of hAb003LH1L1 (antibody, human IgG1, V domains shown, Humanized F2.154.1) VH: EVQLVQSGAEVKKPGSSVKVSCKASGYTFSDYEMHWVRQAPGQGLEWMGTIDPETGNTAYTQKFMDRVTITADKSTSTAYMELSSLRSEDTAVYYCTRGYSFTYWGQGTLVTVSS VL: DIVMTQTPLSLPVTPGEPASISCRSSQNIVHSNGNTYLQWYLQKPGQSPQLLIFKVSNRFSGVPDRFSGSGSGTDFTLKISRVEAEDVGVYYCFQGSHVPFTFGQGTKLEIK was 234000

Lab note: measured kon of hAb001H1aL1b (antibody, human IgG1, V domains shown, Humanized F2.169.2) VH: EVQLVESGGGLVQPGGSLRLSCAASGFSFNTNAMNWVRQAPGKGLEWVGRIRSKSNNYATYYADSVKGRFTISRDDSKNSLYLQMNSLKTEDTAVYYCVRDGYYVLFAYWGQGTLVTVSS VL: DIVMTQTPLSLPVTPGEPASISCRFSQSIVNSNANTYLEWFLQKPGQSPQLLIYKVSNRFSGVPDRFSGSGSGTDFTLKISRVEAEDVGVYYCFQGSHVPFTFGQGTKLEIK was 153000

Lab note: measured kon of hAb006LH2L1 (antibody, human IgG1, V domains shown, Humanized F3.38.7) VH: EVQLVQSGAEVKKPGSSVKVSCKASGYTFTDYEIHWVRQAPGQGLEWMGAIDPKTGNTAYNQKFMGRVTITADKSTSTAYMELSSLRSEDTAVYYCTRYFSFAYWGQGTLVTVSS VL: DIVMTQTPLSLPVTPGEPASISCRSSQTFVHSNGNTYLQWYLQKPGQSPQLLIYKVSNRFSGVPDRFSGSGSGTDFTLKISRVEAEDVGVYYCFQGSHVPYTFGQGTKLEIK was 158000

Lab note: measured kon of hAb007LH1L1 (antibody, human IgG1, V domains shown, Humanized F3.81.19) VH: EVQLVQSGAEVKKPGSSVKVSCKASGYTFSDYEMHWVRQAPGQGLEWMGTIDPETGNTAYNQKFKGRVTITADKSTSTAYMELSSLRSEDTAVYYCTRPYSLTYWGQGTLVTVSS VL: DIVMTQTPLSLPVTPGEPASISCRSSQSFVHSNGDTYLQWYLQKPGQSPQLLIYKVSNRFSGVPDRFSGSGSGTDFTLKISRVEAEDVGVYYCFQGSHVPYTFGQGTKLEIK was 109000

Lab note: measured kon of hAb006LH1L1b (antibody, human IgG1, V domains shown, Humanized F3.38.7) VH: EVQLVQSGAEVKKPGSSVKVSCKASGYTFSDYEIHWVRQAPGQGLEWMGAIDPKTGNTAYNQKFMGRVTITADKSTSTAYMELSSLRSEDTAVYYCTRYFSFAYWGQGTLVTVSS VL: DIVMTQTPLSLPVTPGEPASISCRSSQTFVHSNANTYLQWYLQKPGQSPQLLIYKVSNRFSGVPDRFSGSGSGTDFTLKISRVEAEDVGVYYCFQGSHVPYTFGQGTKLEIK was 168000

meta.source: patent US20260116991A1
